Each recorded value in this set is attributed to patent US20220340597A1.

I'd appreciate it if you could supply hERG IC20/TLR8 IC50 values for the items below.
Biological target: hERG channel (Homo sapiens, UniProt Q12809)
Construct: expressed in transfected cells; host or cells: CHO (Chinese hamster ovary), CHOhERG
Sequence (Q12809 whole entry): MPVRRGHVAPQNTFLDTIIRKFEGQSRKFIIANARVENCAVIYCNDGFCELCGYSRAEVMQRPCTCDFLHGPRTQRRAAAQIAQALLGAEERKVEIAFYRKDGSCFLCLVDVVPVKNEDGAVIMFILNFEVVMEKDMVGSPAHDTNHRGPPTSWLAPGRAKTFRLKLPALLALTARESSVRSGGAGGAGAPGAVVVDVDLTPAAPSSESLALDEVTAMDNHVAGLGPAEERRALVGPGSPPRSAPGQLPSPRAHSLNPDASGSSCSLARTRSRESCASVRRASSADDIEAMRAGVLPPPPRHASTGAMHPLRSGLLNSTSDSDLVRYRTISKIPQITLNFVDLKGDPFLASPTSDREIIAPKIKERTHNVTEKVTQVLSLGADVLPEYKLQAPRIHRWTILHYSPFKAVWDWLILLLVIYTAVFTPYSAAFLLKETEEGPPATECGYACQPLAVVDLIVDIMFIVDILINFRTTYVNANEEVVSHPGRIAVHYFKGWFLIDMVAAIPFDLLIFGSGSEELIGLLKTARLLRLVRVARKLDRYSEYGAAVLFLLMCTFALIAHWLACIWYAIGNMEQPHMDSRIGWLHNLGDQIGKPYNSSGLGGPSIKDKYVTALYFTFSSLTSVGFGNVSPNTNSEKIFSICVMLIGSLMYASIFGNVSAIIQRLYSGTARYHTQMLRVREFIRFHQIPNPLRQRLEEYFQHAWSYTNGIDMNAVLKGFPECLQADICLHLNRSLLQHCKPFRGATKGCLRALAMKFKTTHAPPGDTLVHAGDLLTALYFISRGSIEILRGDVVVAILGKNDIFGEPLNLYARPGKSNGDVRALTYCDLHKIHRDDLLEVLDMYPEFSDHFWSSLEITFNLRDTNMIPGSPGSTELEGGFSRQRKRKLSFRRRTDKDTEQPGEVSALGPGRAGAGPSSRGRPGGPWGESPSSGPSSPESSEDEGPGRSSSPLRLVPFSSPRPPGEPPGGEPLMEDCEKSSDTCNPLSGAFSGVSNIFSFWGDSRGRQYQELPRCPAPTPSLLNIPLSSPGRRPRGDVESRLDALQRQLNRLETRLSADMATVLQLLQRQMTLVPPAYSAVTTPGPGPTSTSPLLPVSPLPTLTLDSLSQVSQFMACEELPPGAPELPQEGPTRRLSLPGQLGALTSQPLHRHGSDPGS
Experiment: hERG channel inhibition assay (patch-clamp, CHOhERG cells)
Assay type: cell-based
Conditions: safety ratio
Method: hERG Channel Inhibition Assay: The hERG K^+ channels were cloned in humans and stably expressed in a CHO (Chinese hamster ovary) cell line. CHOhERG cells were used for patch-clamp (voltage-clamp, whole-cell) experiments. […] After the cells were stabilized for a few minutes, the amplitude and kinetics of IKhERG were recorded at a stimulation frequency of 0.1 Hz (6 bpm). […]

Please review the following examples before continuing.
{"COMPOUND": "C[C@@H]1CN(c2ccc(C#N)c3ncccc23)C[C@@H]2CN(c3nccc(N4CC(N)C4)n3)CCN21 [Example 39]", "TARGET_UNDER_TEST": "hERG channel (Homo sapiens, UniProt Q12809)", "VALUE_KIND": "hERG IC20/TLR8 IC50", "OBSERVED_MEASUREMENT": 294}
{"COMPOUND": "CO[C@@H]1CN(c2nccc(N3CCN4[C@@H](C3)CN(c3ccc(C#N)c5ncccc35)C[C@H]4C)n2)C[C@H]1N [Example 36]", "TARGET_UNDER_TEST": "hERG channel (Homo sapiens, UniProt Q12809)", "VALUE_KIND": "hERG IC20/TLR8 IC50", "OBSERVED_MEASUREMENT": 373}
{"COMPOUND": "[2H]c1ccc2c(N3C[C@@H]4CN(Cc5ccc(N[C@H]6CNC[C@H]6F)nc5C)CCN4[C@H](C)C3)ccc(C#N)c2n1 [Example 82]", "TARGET_UNDER_TEST": "hERG channel (Homo sapiens, UniProt Q12809)", "VALUE_KIND": "hERG IC20/TLR8 IC50", "OBSERVED_MEASUREMENT": ">3333"}

// for each compound below, give its hERG IC20/TLR8 IC50
1. [2H]c1ccc2c(N3C[C@@H]4CN(c5ncc(N6C[C@@H]7C[C@H]6CN7)cc5C)CCN4[C@@H](C)C3)ccc(C#N)c2n1 [Example 111]
2. [2H]c1ccc2c(N3C[C@@H]4CN(c5ccc(N6CC7CCC(C6)N7)nc5)CCN4[C@@H](C)C3)ccc(C#N)c2n1 [Example 112]
3. [2H]c1ccc2c(N3C[C@@H]4CN(c5ccc(CCN6C[C@H](OC)[C@@H](N)C6)cn5)CCN4[C@H](C)C3)ccc(C#N)c2n1 [Example 109]

Reply:
>2000
>1000
>2500

* * *

target: hERG channel (Homo sapiens); construct: expressed in transfected cells; host or cells: CHO (Chinese hamster ovary), CHOhERG; test: hERG channel inhibition assay (patch-clamp, CHOhERG cells); assay type: cell-based; conditions: human, CHO cells stably expressing hERG (CHOhERG); CHOhERG cells, whole-cell patch-clamp
VALUE_KIND: IC20

Please review the following examples before continuing.
{"STRUCTURE": "CO[C@@H]1CN(c2ccc(CCN3CCN4[C@@H](C3)CN(c3ccc(C#N)c5ncccc35)C[C@H]4C)cn2)C[C@H]1N", "IC20": "> 10 µM"}
{"STRUCTURE": "C[C@@H]1CN(c2ccc(C#N)c3ncccc23)C[C@H]2CN(c3cncc4c3CCNC4)CCN21", "IC20": "4.35 µM"}
{"STRUCTURE": "[2H]c1ccc2c(N3C[C@@H]4CN(c5ccc6c(n5)CCNC6)CCN4[C@@H](C)C3)ccc(C#N)c2n1", "IC20": "> 10 µM"}

Consider the additional compound presented here.
Query: What IC20 value was documented for this compound, `Cc1cc(N2CCN3[C@@H](C2)CN(c2ccc(C#N)c4ncccc24)C[C@H]3C)nc(N2CC(C)(N)C2)n1` ?
Reply: > 10 µM
